Provenance of the data: patent US20190276542A1

Listing: kon of selected binders
Biological target: T1, recombinant human (rhu) PD1 (extracellular domain only) (human, UniProt Q15116 25-170)
T1 construct: extracellular domain; also called recombinant human PD1
T1 sequence (Q15116 25-170): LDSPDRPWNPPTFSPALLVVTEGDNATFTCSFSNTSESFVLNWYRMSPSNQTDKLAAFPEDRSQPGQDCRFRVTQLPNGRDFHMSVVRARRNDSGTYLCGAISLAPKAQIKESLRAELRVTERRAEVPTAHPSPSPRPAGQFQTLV
Test: SPR (Biacore 3000), antibody captured by anti-human IgG, PD1 as analyte
Lab book: enter the figure in M⁻¹ s⁻¹, no units written.

[
  {
    "Binder": "anti-hPD1 antibody #3 (antibody, human IgG4, V domains shown, also called Anti-hPD1 #3; Anti-PD1 #3) VH: QVQLVQSGAEVKKPGASVKVSCKASSYTFTNYWMHWVRQAPGQGLEWMGEIDPYDSYTNYNQKFKGRVTMTIDTSTSTVYMELSSLTSEDTAVYYCARPGFTYGGMDFWGQGTLVTVSS VL: DIQMTQSPSSLSASVGDRVTITCKSSQSLFNSGNQKNYLAWYQQKPGKVPKLLIYGASTRESGVPARFSGSGSGTDFTLTISSLQAEDVATYYCQNDHYYPYTFGGGTKVEIK",
    "Unit": "M⁻¹ s⁻¹",
    "kon": 67400
  },
  {
    "Binder": "anti-hPD1 antibody #1 (antibody, V domains shown, also called Anti-hPD1 #1; Anti-PD1 #1) VH: QVQLVQSGAEVKKPGASVKVSCKASGYTFTNYWIHWVRQAPGQGLEWMGEIDPYDSYTNYNQKFKGRVTMTVDKSTSTVYMELSSLRSEDTAVYYCARPGFTYGGMDFWGQGTLVTVSS VL: DIQMTQSPSSLSASVGDRVTITCKSSQSLFNSGNQKNYLAWYQQKPGKVPKLLIYGASTRDSGVPYRFSGSGSGTDFTLTISSLQPEDVATYYCQNDHYYPYTFGGGTKVEIKR",
    "Unit": "M⁻¹ s⁻¹",
    "kon": 60900
  },
  {
    "Binder": "anti-hPD1 antibody #4 (antibody, human IgG4, V domains shown, also called Anti-hPD1 #4; Anti-PD1 #4) VH: QVQLVQSGAEVKKPGASVKVSCKASGYTFTNYWMHWVRQAPGQGLEWMGEIDPFDSYTNYNQKFKGRVTMTRDTSTSTVYMELSSLTSEDTAVYYCARPGYTYGGMDFWGQGTLVTVSS VL: DIQMTQSPSSLSASVGDRVTITCKSSQSLLNSGNQKNYLAWYQQKPGKPPKLLIYGASTRDSGVPSRFSGSGSGTDFTLTISSLQPEDVATYYCQNDHYYPYTFGGGTKVEIK",
    "Unit": "M⁻¹ s⁻¹",
    "kon": 60400
  }
]

Now for another entry.
[in] I would be grateful if you could share the reported kon for anti-hPD1 antibody #7 (antibody, human IgG4, V domains shown, also called Anti-hPD1 #7; Anti-PD1 #7) VH: QVQLVQSGAEVKKPGASVKVSCKASGYTFTNYWIHWVRQAPGQGLEWMGEIDPYDSYTNYNQKFKGRVTMTIDKSTNTVYMELSSLRSEDTAVYYCARPGLTYGGMDFWGQGTLVTVSS VL: DIVMTQSPDSLAVSLGERATINCRSSQSLFISGNQKNYLAWYQQKPGQPPKLLIYGASTRESGVPDRFSGSGSGTDFTLTISSLQAEDVAVYYCQNNHYYPYTFGGGTKVEIK .
[out] 119000
